This listing pairs compounds with measured Activity.
biological target: Melanocortin receptor 4 (Mus musculus) (UniProt P56450); test: Agonist activity at mouse MC4R expressed in HEK293 cells at 100 uM incubated for 2 hrs by AlphaScreen cAMP assay relative to untreated control; format: functional, cell-based
Sequence (P56450 whole entry): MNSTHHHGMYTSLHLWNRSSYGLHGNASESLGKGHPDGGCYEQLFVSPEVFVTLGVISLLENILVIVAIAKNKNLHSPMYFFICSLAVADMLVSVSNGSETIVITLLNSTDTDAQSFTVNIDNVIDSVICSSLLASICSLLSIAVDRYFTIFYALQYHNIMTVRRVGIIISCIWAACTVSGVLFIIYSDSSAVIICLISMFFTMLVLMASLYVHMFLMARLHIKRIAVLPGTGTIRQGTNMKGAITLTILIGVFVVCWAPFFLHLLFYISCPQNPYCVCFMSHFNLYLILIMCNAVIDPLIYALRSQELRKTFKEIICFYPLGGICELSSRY
Square brackets hold non-standard residues; d marks the D form. Peptide text beside a SMILES is read from it. hPhe = N[C@@H](CCc1ccccc1)C(=O)O; Nle = CCCC[C@H](N)C(=O)O; Dap = NC[C@H](N)C(=O)O

compound: CCCC[C@@H]1NC(=O)[C@H](CO)NC(=O)[C@H](CN)NC(=O)[C@H](CCc2ccccc2)NC(=O)[C@H](Cc2ccccc2)NC(=O)[C@H](CCCNC(=N)N)NC(=O)[C@@H]2CCCN2C(=O)[C@H]2CCCN2C1=O (cyclo(RF[hPhe][Dap]S[Nle][dP]P))
Activity: < 20%
--
compound: CCCC[C@@H]1NC(=O)[C@H](CO)NC(=O)[C@H](CC(N)=O)NC(=O)[C@H](Cc2ccccc2)NC(=O)[C@H](Cc2ccccc2)NC(=O)[C@H](CCCNC(=N)N)NC(=O)[C@@H]2CCCN2C(=O)[C@H]2CCCN2C1=O (cyclo(RFFNS[Nle][dP]P))
Activity: < 20%

Ref: ChEMBL document CHEMBL4145669
